- test-system: α-syn fibrils (Homo sapiens, UniProt P37840)
- test-summary: α-Synuclein fibril/ligand saturation binding assay
- conditions-used: Kd α-syn, Table 3 and text; α-syn fibrils, saturation binding; mean ± SD (n = 3)
// assign Yes if Kd falls strictly below 0.04 µM, else No (ties count as No)

Please review the following examples before continuing.
1) CN(C)c1ccc(/C=C/C=C2\Cc3ccccc3C2=O)cc1 [compound 9] :: Yes
2) O=C(O)c1ccc(-c2ccc(/C=C/C=C3C(=O)c4ccccc4C3=O)cc2)s1 [compound 35] :: No
3) COc1cc(/C=C/C=C2\Cc3ccccc3C2=O)ccc1O [compound 8] :: Yes
4) COc1cc(/C=C/C=C2\CCc3ccccc3C2=O)ccc1O [compound 23] :: No

Now take the following compound into account.
Qu. Quick check: Kd of COc1cc(/C=C/C=C2C(=O)c3ccccc3C2=O)ccc1O [compound 20] under 0.04 µM?
Ans. No

###

Field: Fluorescence quantum yield Free ligand. Provide a value for each of the molecules that follow.
- test-summary: Absorption/emission maxima and fluorescence quantum yield of free ligand in PBS
- Assay type: physicochemical
- conditions-used: free ligand
One number for each entry.

# count of solved cases: 4
1. CN(C)c1ccc(/C=C/C=C2\CCc3ccccc3C2=O)cc1 :: 0.0063
2. O=C1/C(=C\c2ccc(-c3ccc(CO)cc3)s2)Cc2ccccc21 :: 0.0063
3. COc1cc(-c2ccc(/C=C/C=C3\Cc4ccccc4C3=O)cc2)ccc1O :: 0.0052
4. COc1ncc(-c2ccc(/C=C3/Cc4ccccc4C3=O)s2)c(OC)n1 :: 0.0050

I need Fluorescence quantum yield Free ligand for every entry listed below, if you could help.
1. COc1cc(/C=C/C=C2C(=O)c3ccccc3C2=O)ccc1O
2. CN(C)c1ccc(/C=C/C=C2\Cc3ccccc3C2=O)cc1

Ans.
0.0061
0.0059

###

- test-system: Aβ fibrils (Homo sapiens, UniProt P05067)
- Sequence (P05067 672-711): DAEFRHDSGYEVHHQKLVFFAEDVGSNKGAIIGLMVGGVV
- test-summary: Fluorescent properties of ligand-Aβ fibril complex
- Format: physicochemical
For each entry below, report its Fluorescence quantum yield Ligand + Aβ value.
Give bare numbers.

1. O=C1/C(=C\c2ccc(-c3ccc(CO)cc3)s2)Cc2ccccc21 :: 0.1074
2. COc1cc(/C=C/C=C2\Cc3ccccc3C2=O)ccc1O :: 0.1363
3. COc1cc(/C=C/C=C2\CCc3ccccc3C2=O)ccc1O :: 0.1890
4. COc1cc(-c2ccc(/C=C/C=C3\Cc4ccccc4C3=O)cc2)ccc1O :: 0.1543
5. COc1cc(-c2ccc(/C=C3/Cc4ccccc4C3=O)s2)ccc1O :: 0.1377

Field: next compound
The compound `CN(C)c1ccc(/C=C/C=C2\CCc3ccccc3C2=O)cc1` showed Fluorescence quantum yield Ligand + Aβ equal to 0.1377

###

- test-system: Aβ fibrils (Homo sapiens, UniProt P05067)
- test-summary: Fluorescent properties of ligand-Aβ fibril complex
- Type: physicochemical
Assign Emmax Ligand + Aβ to each entry below.
Answers are plain numbers.

1. O=C(O)c1ccc(-c2ccc(/C=C/C=C3\Cc4ccc(O)cc4C3=O)cc2)cc1 [compound 32] :: 583
2. COc1cc(/C=C/C=C2\Cc3ccccc3C2=O)ccc1O [compound 8] :: 579
3. COc1cc(/C=C/C=C2\CCc3ccccc3C2=O)ccc1O [compound 23] :: 584
4. COc1cc(/C=C/C=C2C(=O)c3ccccc3C2=O)ccc1O [compound 20] :: 598
5. COc1cc(-c2ccc(/C=C/C=C3\Cc4ccccc4C3=O)cc2)ccc1O [compound 29] :: 574

Give me Emmax Ligand + Aβ for each of these compounds, listed below.
1. COc1cc(-c2ccc(/C=C3/Cc4ccccc4C3=O)s2)ccc1O [compound 39]
2. COc1ncc(-c2ccc(/C=C3/Cc4ccccc4C3=O)s2)c(OC)n1 [compound 42]
3. CN(C)c1ccc(/C=C/C=C2\Cc3ccccc3C2=O)cc1 [compound 9]
4. O=C(O)c1ccc(-c2ccc(/C=C/C=C3C(=O)c4ccccc4C3=O)cc2)s1 [compound 35]

Ans.
586
581
609
595

Need Emmax Ligand + Aβ for each of these compounds.
1. CN(C)c1ccc(/C=C/C=C2\CCc3ccccc3C2=O)cc1 [compound 24]
2. O=C1/C(=C\c2ccc(-c3ccc(CO)cc3)s2)Cc2ccccc21 [compound 37]

Ans.
[585, 556]

###

- test-system: α-syn fibrils (Homo sapiens)
- test-summary: α-Synuclein fibril/ligand saturation binding assay
- conditions-used: Kd α-syn, Table 1; synthetic α-syn fibrils 2.5 μM, 1 hour; mean ± SD (n = 3)
Label T when Kd < 100 nM; otherwise F.

1) COc1cc(/C=C/C=C2\Cc3ccccc3C2=O)ccc1O :: T

Qu. In the record for `Cc1ccc2occ(C=C3C(=O)c4ccccc4C3=O)c(=O)c2c1` , is Kd less than 100 nM?
Ans. F

Qu. Is Kd of `O=C1C(=C/C=C/c2ccc(F)cc2)C(=O)c2ccccc21` strictly below 100 nM?
Ans. F

Qu. Is the reported Kd for `O=C1/C(=C/C=C/c2ccc(Br)cc2)Cc2ccccc21` strictly below 100 nM?
Ans. F

Qu. Does `O=C1C(=Cc2coc3ccc(Br)cc3c2=O)C(=O)c2ccccc21` have Kd strictly under 100 nM?
Ans. F

Qu. Take the molecule `COc1cc(/C=C/C=C2C(=O)c3ccccc3C2=O)ccc1O` and say whether its Kd is less than 100 nM.
Ans. T

Qu. Record `CN(C)c1ccc(/C=C/C=C2\Cc3ccc(O)cc3C2=O)cc1` : is its Kd strictly below 100 nM?
Ans. F

Qu. API: query returns whether the molecule falls strictly under 100 nM in Kd. Query: `O=C1/C(=C/C=C/c2ccc(-c3ccc(CO)cc3)cc2)Cc2ccc(O)cc21`
Ans. F

Qu. Determine whether this molecule shows Kd lower than 100 nM (ties excluded): `CN(C)c1ccc(-c2ccc(/C=C3/Cc4ccccc4C3=O)s2)cc1`
Ans. F

Qu. Hello, is Kd of the following molecule strictly smaller than 100 nM? `O=C1/C(=C/C=C/c2ccc(Br)cc2)Cc2ccc(O)cc21`
Ans. F

Qu. # strict comparison: is reported Kd < 100 nM? input = `CN(C)c1ccc(C=CC=C2C(=O)Oc3ccccc3C2=O)cc1`
Ans. F

Qu. Hello, I'm reviewing records and need to know if Kd of `O=C1/C(=C\c2ccc(-c3ccc(CO)cc3)s2)Cc2ccc(O)cc21` is below 100 nM. Could you check?
Ans. F

Qu. Below 100 nM on Kd? Entry `CN(C)c1ncc(-c2ccc(/C=C3/CCc4ccccc4C3=O)s2)cn1`
Ans. F

###

- test-system: α-syn fibrils (Homo sapiens, UniProt P37840)
- test-summary: α-Synuclein fibril/ligand saturation binding assay
- conditions-used: from Kd Aβ and Kd α-syn
Give measured Selectivity α-syn v/s Aβ for each item. Keep answers brief.

1) COc1cc(-c2ccc(/C=C3/Cc4ccccc4C3=O)s2)ccc1O :: 2.8 x
2) O=C(O)c1ccc(-c2ccc(/C=C/C=C3C(=O)c4ccccc4C3=O)cc2)s1 :: 4.5 x

The reported value for `COc1cc(/C=C/C=C2\CCc3ccccc3C2=O)ccc1O` in terms of Selectivity α-syn v/s Aβ is 1.7 x

###

- test-summary: Absorption/emission maxima and fluorescence quantum yield of free ligand in PBS
- Type: physicochemical
- conditions-used: free ligand in PBS
Exercise: state measured Emmax for each of the compounds provided.
Give bare numbers.

See these solved cases before continuing.
1. O=C1/C(=C\c2ccc(-c3ccc(CO)cc3)s2)CCc2ccccc21 :: 551
2. O=C1C(=C/C=C/c2ccc(Br)cc2)C(=O)c2ccccc21 :: 419
3. COc1cc(-c2ccc(/C=C/C=C3\Cc4ccccc4C3=O)cc2)ccc1O :: 551
4. COc1cc(-c2ccc(/C=C3/CCc4ccccc4C3=O)s2)ccc1O :: 596
5. COc1cc(/C=C/C=C2C(=O)c3ccccc3C2=O)cc(OC)c1O :: 450
6. O=C1C(=C/C=C/c2ccc(F)cc2)C(=O)c2ccccc21 :: 421
7. COc1cc(/C=C/C=C2\CCc3ccccc3C2=O)ccc1O :: 549
8. O=C1/C(=C/C=C/c2ccc([N+](=O)[O-])cc2)Cc2cc(F)cc(F)c21 :: 439

For each of the compounds below, state Emmax.
1. O=C1/C(=C/C=C/c2ccc([N+](=O)[O-])cc2)Cc2ccccc21
2. O=C1C(=C/C=C/c2ccccc2)C(=O)c2ccccc21
3. CN(C)c1ncc(-c2ccc(/C=C3/Cc4ccccc4C3=O)s2)cn1
4. O=C1C(=C/C=C/c2ccc([N+](=O)[O-])cc2)C(=O)c2ccccc21
5. O=C1C(=Cc2coc3ccc(Br)cc3c2=O)C(=O)c2ccccc21
6. CN(C)c1ccc(-c2ccc(/C=C3/Cc4ccccc4C3=O)s2)cc1
7. O=C1/C(=C/C=C/c2ccc(Br)cc2)Cc2ccccc21

Ans.
1: 438; 2: 421; 3: 567; 4: 460; 5: 406; 6: 597; 7: 430
